- Test system: Saccharomyces cerevisiae
- test_details: protein stability index of tFT-peptide fusion (C-terminal peptide) (PSI (0-1 scale)); higher = more stable (slower turnover)
- test_parameters: genetic background: wild type; temperature: 30 C
Please go through the items and note down their protein stability index.
Give bare numbers.

Please review the entries below; each comes with its answer.
residue_string: PSLVGRVWLEFV
protein stability index: 0.691
--
residue_string: SSLRPPPPLPPP
protein stability index: 0.682
--
residue_string: NPRGAKRRNSRK
protein stability index: 0.663
--
residue_string: NPLSSPSLPPSS
protein stability index: 0.625
--
residue_string: TNQITRHELTTY
protein stability index: 0.599

Provide reported protein stability index for each item, in the same order as listed.
1. SYSSILPPLSSA
2. LFPSVCSTSSFS
3. IVTQGCLFFLVR
4. EGALSGGGKTSG
5. GVVSVFVGSLGG

0.686
0.676
0.687
0.651
0.699

* * *

- Test system: Saccharomyces cerevisiae
- test_details: protein stability index of tFT-peptide fusion (C-terminal peptide) (PSI (0-1 scale)); higher = more stable (slower turnover)
- test_parameters: genetic background: cdc34-1; temperature: 37 C
Binning rule for recorded protein stability index: low group: < 0.4; middle group: ≥ 0.4 and < 0.6; high group: ≥ 0.6

residue_string: RSPVVVFAVLLF
class_name: middle group

Which category does the recorded protein stability index put "GVKSQLYSFVWF" in?
high group

Which category does the recorded protein stability index put "PSPPPPLPPHPS" in?
high group

Which category does the recorded protein stability index put "MIQPRLANIIIS" in?
high group

Which category does the recorded protein stability index put "CDSRIRKIWSYL" in?
high group

* * *

- Tested on: Saccharomyces cerevisiae
- test_details: protein stability index of tFT-peptide fusion (C-terminal peptide) (PSI (0-1 scale)); higher = more stable (slower turnover)
- test_parameters: genetic background: wild type; temperature: 30 C
Please go through the items and note down their protein stability index.
One number for each entry.

residue_string: PRFWFYLSYSVH
readout_type: protein stability index
observed_result: 0.431

Provide reported protein stability index for each item, in the same order as listed.
1. SCCIYVALCRWL
2. PSPLAPPPRLPV
3. RWGANSVSLEGE
4. TIIRQRHYAPNL
5. GGVGATSGRLSR
6. PAWGEQYYGNVR
7. MIIPTVLCRVDL
8. GYAGSRRLGLQE

0.382
0.733
0.737
0.677
0.712
0.69
0.661
0.641

* * *

Please go through the items and note down their protein stability index.
- Test system: Saccharomyces cerevisiae
- test_details: protein stability index of tFT-peptide fusion (C-terminal peptide) (PSI (0-1 scale)); higher = more stable (slower turnover)
- test_parameters: genetic background: wild type; temperature: 30 C
Give bare numbers.

Please review the entries below; each comes with its answer.
residue_string: FFSPSSVSVGVR
protein stability index: 0.65
--
residue_string: GFINYDHKVIRI
protein stability index: 0.77
--
residue_string: GGWGVFGVWVWM
protein stability index: 0.324
--
residue_string: KGRQVDQALVRG
protein stability index: 0.634
--
residue_string: APSPPVPTGPRP
protein stability index: 0.664

Provide reported protein stability index for each item, in the same order as listed.
1. TGEVSTRVGQRE
2. WFPSSLPLTCIQ
3. PVFLEFESWCVC
4. AAVLFVHATSHE
5. LHPCATITELTS
6. LVCCRRILLNTT

1. 0.66
2. 0.651
3. 0.685
4. 0.685
5. 0.652
6. 0.634

Provide reported protein stability index for each item, in the same order as listed.
1. PLHVSLVRFGCP
2. SHVVDAPYRSEG
3. PPVSPPSPRLPL
4. LFPVASLCLART
5. EYYRYLPVLIRL
6. RLARRGGGWGPG
7. LCGPKIGFVVSR
8. GAMVVRSSSPWT

[0.633, 0.666, 0.733, 0.529, 0.467, 0.5, 0.704, 0.685]

* * *

- Tested on: Saccharomyces cerevisiae
- test_details: protein stability index of tFT-peptide fusion (C-terminal peptide) (PSI (0-1 scale)); higher = more stable (slower turnover)
- test_parameters: genetic background: wild type; temperature: 30 C
Please go through the items and note down their protein stability index.
Answers are plain numbers.

Please review the entries below; each comes with its answer.
residue_string: PPRQPLSLLLPL
target_entity: Saccharomyces cerevisiae
protein stability index: 0.647

residue_string: RGGVCFVVWCGG
target_entity: Saccharomyces cerevisiae
protein stability index: 0.429

residue_string: DKDSTSRYSKPW
target_entity: Saccharomyces cerevisiae
protein stability index: 0.725

residue_string: RIAEYIDTKCPR
target_entity: Saccharomyces cerevisiae
protein stability index: 0.708

residue_string: QMSHTGPTTIQS
target_entity: Saccharomyces cerevisiae
protein stability index: 0.695

residue_string: YPDPLSVSPPPA
target_entity: Saccharomyces cerevisiae
protein stability index: 0.682

residue_string: ISYLSILTSCPW
target_entity: Saccharomyces cerevisiae
protein stability index: 0.654

residue_string: VFILGFLCLLFF
target_entity: Saccharomyces cerevisiae
protein stability index: 0.355

residue_string: PDRYPPPPGRRG
target_entity: Saccharomyces cerevisiae
protein stability index: 0.704

residue_string: DYRLWFRGLPSL
target_entity: Saccharomyces cerevisiae
protein stability index: 0.697

Provide reported protein stability index for each item, in the same order as listed.
1. WWGCLGGRAGSR
2. PSLHPLSPSPPA
3. SLLPQSAGRRPH
4. SVTLYLTPPSLT
5. KFIVQNENSGQC

1. 0.695
2. 0.686
3. 0.666
4. 0.67
5. 0.677

Provide reported protein stability index for each item, in the same order as listed.
1. WKKSIKKDTREM
2. GTGSVHYHRSGL
3. GSPSPLIALSRK

0.721
0.676
0.689

Provide reported protein stability index for each item, in the same order as listed.
1. VFVFTFSLSFYC
2. DFHLPWPVALVW
3. LGAAFHSLTRLV
4. PGGLHHGCSTPA
5. PPPPPPPPPSSP
6. KSKRKKKKQTKR

0.347
0.387
0.617
0.724
0.701
0.653

Provide reported protein stability index for each item, in the same order as listed.
1. FPFSSFSGRCVD
2. LFPHSLLPPPFF
3. KVSCGGAGDSLG
4. SVYLPFPSGLLL
5. PPLPPLCRPLPP

1. 0.67
2. 0.73
3. 0.693
4. 0.728
5. 0.685

* * *

- Test system: Saccharomyces cerevisiae
- test_details: protein stability index of tFT-peptide fusion (C-terminal peptide) (PSI (0-1 scale)); higher = more stable (slower turnover)
- test_parameters: genetic background: wild type; temperature: 30 C
Please go through the items and note down their protein stability index.

Please review the entries below; each comes with its answer.
residue_string: TIITKYEMLVRT [YOL134C C-terminal 12 aa]
readout_type: protein stability index
observed_result: 0.54
--
residue_string: KSLAECQELLKN [TPD3 C-terminal 12 aa]
readout_type: protein stability index
observed_result: 0.663

Provide reported protein stability index for each item, in the same order as listed.
1. LSAETGIRGEGE [YIL100W C-terminal 12 aa]
2. VPEFLLHRRNSI [NTE1 C-terminal 12 aa]
3. GMISKSLKIPKP [CHO1 C-terminal 12 aa]
4. VMPIFIYFYTVV [CDC1 C-terminal 12 aa]

0.71
0.75
0.698
0.343

Provide reported protein stability index for each item, in the same order as listed.
1. LLSAILDPSKSK [MED11 C-terminal 12 aa]
2. GIPEEFKEFTEV [MND1 C-terminal 12 aa]

1. 0.699
2. 0.718

* * *

- System: Saccharomyces cerevisiae
- test_details: protein stability index of tFT-peptide fusion (C-terminal peptide) (PSI (0-1 scale)); higher = more stable (slower turnover)
- test_parameters: genetic background: wild type; temperature: 30 C
Binning rule for recorded protein stability index: zone 1: < 0.6; zone 2: ≥ 0.6 and < 0.7; zone 3: ≥ 0.7

Solved entries:
residue_string: WVFVETVFLVCG
class_name: zone 1
//
residue_string: EGSSVITFAGGG
class_name: zone 2
//
residue_string: DSPLSHPPSPAP
class_name: zone 2
//
residue_string: FLPLFFLPCLSV
class_name: zone 1
//
residue_string: YDYASTCGSCIY
class_name: zone 3
//
residue_string: IKSTYRNPLPPL
class_name: zone 2
//
residue_string: KRRNKEHNKIRD
class_name: zone 2
//
residue_string: DFIVVIRFIQII
class_name: zone 1
//
residue_string: HMCSTYGKLRLD
class_name: zone 2
//
residue_string: GVVVVVVGRGLG
class_name: zone 1

Which category does the recorded protein stability index put "HDGIQVSVRRRT" in?
zone 2

Which category does the recorded protein stability index put "IRTITSVQTFPE" in?
zone 2

Which category does the recorded protein stability index put "HILDHVTSSLSF" in?
zone 2

Which category does the recorded protein stability index put "PPPRSLPPISPV" in?
zone 2

Which category does the recorded protein stability index put "SPSPSSLPPPLR" in?
zone 3

Which category does the recorded protein stability index put "NLPLPPSPFALP" in?
zone 3

Which category does the recorded protein stability index put "SFPGVRHSTSDS" in?
zone 2

Which category does the recorded protein stability index put "WLGGIFRNKVFT" in?
zone 2

Which category does the recorded protein stability index put "GVGRGGAVENKV" in?
zone 3

Which category does the recorded protein stability index put "RVVGCPPLLLPP" in?
zone 2

Which category does the recorded protein stability index put "GKRAKKKNTKRY" in?
zone 2

Which category does the recorded protein stability index put "ECVPEVACCPWR" in?
zone 3

Which category does the recorded protein stability index put "WHFMVFFCFCVD" in?
zone 1

Which category does the recorded protein stability index put "PRPRRSSLPFPP" in?
zone 3

Which category does the recorded protein stability index put "LLFPRVLVLCFS" in?
zone 1

Which category does the recorded protein stability index put "GGGVSCGRWGTG" in?
zone 2

Which category does the recorded protein stability index put "VCVAACVGAHFA" in?
zone 2
